# Tested on: Pseudomonas aeruginosa
# Test Name: In vitro antibacterial activity, agar dilution MIC (Experiment 1)
# Format: cell-based
# Assay Setup: agar dilution (Table 3), read-out: MIC90
Mark 1.0 for MIC90 under 4 µg/mL, 0.0 if at or over.

| Molecule | Test System | Category |
| --- | --- | --- |
| CC(C)(O/N=C(\C(=O)N[C@@H]1C(=O)N2C(C(=O)[O-])=C(C[n+]3ccccc3)CS[C@H]12)c1csc(N)n1)C(=O)O [Ceftazidime, reference compound] | Pseudomonas aeruginosa | 0.0 |
| Cc1cc(C#CC#Cc2ccc(C(=O)N[C@H](C(=O)NO)[C@@H](C)O)cc2)oc1CO [Compound 16] | Pseudomonas aeruginosa | 1.0 |
| C[C@@](CCn1ccc(-c2ccc(C#Cc3ccc(CO)o3)cc2)cc1=O)(C(=O)NO)S(C)(=O)=O [Compound 46] | Pseudomonas aeruginosa | 0.0 |
| C[C@@H](O)[C@H](NC(=O)c1ccc(C#CC#Cc2ccc(CN3CCNCC3)o2)cc1)C(=O)NO [Compound 24] | Pseudomonas aeruginosa | 0.0 |
| C[C@@H](O)[C@H](NC(=O)c1ccc(/C=C/C=C/c2ccc(CO)o2)cc1)C(=O)NO [Compound 3] | Pseudomonas aeruginosa | 0.0 |
| CNCc1ccc(C#CC#Cc2ccc(C(=O)N[C@H](C(=O)NO)[C@@H](C)O)cc2)o1 [Compound 15] | Pseudomonas aeruginosa | 1.0 |
| C[C@@H](O)[C@H]1C(=O)N2C(C(=O)O)=C(SCCN=CN)C[C@H]12 [Imipenem, reference compound] | Pseudomonas aeruginosa | 0.0 |
| C[C@@H](O)[C@H](NC(=O)c1ccc(C#CC#Cc2ccc(CNC3CC3)o2)cc1)C(=O)NO [Compound 11] | Pseudomonas aeruginosa | 0.0 |
| C[C@@H](O)[C@H](NC(=O)c1ccc(C#CC#Cc2ccc(CN3CCN(C)CC3)o2)cc1)C(=O)NO [Compound 13] | Pseudomonas aeruginosa | 0.0 |
| CC(CCn1ccc(-c2ccc(C#CC#Cc3ccc(CO)o3)cc2)cc1=O)(C(=O)NO)S(C)(=O)=O (stereo not shown) [Compound 47] | Pseudomonas aeruginosa | 0.0 |
| CC(O)C(NC(=O)c1ccc(/C=C/C=C/c2ccco2)cc1)C(=O)NO (racemic) [Compound 25] | Pseudomonas aeruginosa | 0.0 |
| CNC(=O)C(C(=O)NO)N(C)C(=O)c1ccc(C#CC#Cc2ccc(CO)o2)cc1 (stereo not shown) [Compound 5] | Pseudomonas aeruginosa | 1.0 |
| C[C@@H](O)[C@H](NC(=O)c1ccc(C#Cc2ccc(-c3ccnn3C)cc2)cc1)C(=O)NO [Compound 36] | Pseudomonas aeruginosa | 0.0 |
| C[C@@H](O)[C@H](NC(=O)c1ccc(C#CC#Cc2ccnn2C)cc1)C(=O)NO [Compound 34] | Pseudomonas aeruginosa | 0.0 |
| C[C@@H](O)[C@H](NC(=O)c1ccc(/C=C/C=C/c2ccco2)cc1)C(=O)NO [Compound 1] | Pseudomonas aeruginosa | 0.0 |
| C[C@@H](O)[C@H](NC(=O)c1ccc(C#CC#Cc2ccc(CO)s2)cc1)C(=O)NO [Compound 41] | Pseudomonas aeruginosa | 1.0 |
| C[C@@H](O)[C@H](NC(=O)c1ccc(C#CC#Cc2ccc(CNCCCN3CCOCC3)o2)cc1)C(=O)NO [Compound 22] | Pseudomonas aeruginosa | 0.0 |
| CC(O)[C@H](NC(=O)c1ccc(C#CC#Cc2ccc(CO)o2)cc1)C(=O)NO (stereo in doubt) [Compound 6] | Pseudomonas aeruginosa | 1.0 |
